# credit: PubChem BioAssay

protocol-summary: human astrocyte viability loss, single and combined drugs, cytotoxicity control for chromothriptic childhood tumor combination screen, cell-based, BGB or cisplatin IC20 combos (AID 1671460);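 note: cells exposed to compounds for 96 hours before viability readout; 0% = vehicle and 100% = killing control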
settings: Human astrocytes, drug combinations, measured here: combo with cisplatin IC20, at 0.5 µM, stronger effect = higher value
endpoint-label: inhibition (%)

> print(dat)
                                   molecule  endpoint.label  unit.text  assay.value
1  CN(N=O)C(=O)NC1C(O)OC(CO)C(O)C1O (stereo not given)      inhibition          %        -7.96
2  COC1C(OC(N)=O)C(O)C(Oc2ccc3c(O)c(NC(=O)c4ccc(O)c(CC=C(C)C)c4)c(=O)oc3c2C)OC1(C)C (stereo not given)      inhibition          %        -8.92
3  CN1C[C@@H]2C[C@H]1CN2c1cc2c(cc1F)c(=O)c(C(=O)O)cn2C1CC1      inhibition          %        -51.5
4  CN1CCN(c2c(F)cc3c(=O)c(C(=O)O)cn(CCF)c3c2F)CC1      inhibition          %         3.47
5  CNC1CCCN(c2c(F)cc3c(=O)c(C(=O)O)cn(C4CC4)c3c2OC)C1 (stereo not given)      inhibition          %        -5.96

###

protocol-summary: survival rescue of mitochondrial mutant cells in low glucose, primary screen, MELAS cybrids, Rieske KO mouse fibroblasts, CellTiter-Glo (AID 1508586);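 note: z relative to plate mean and SD of compound and empty wells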
settings: Rieske KO mouse fibroblast survival, CellTiter-Glo 72 h
Listed below: z-score values for each entry.
endpoint-label: z-score

mol	assay-value
CN(C)CCOC1=Cc2ccccc2Sc2ccc(Cl)cc21	0.114
CC(=O)O[C@@]12CO[C@@H]1C[C@H](O)[C@@]1(C)C(=O)[C@H](O)C3=C(C)[C@@H](OC(=O)[C@H](O)[C@@H](NC(=O)OC(C)(C)C)c4ccccc4)C[C@@](O)([C@@H](OC(=O)c4ccccc4)[C@H]21)C3(C)C	0.541
COc1ccc([C@@H]2CC(=O)c3c(O)cc(O[C@@H]4O[C@H](CO[C@@H]5O[C@@H](C)[C@H](O)[C@@H](O)[C@H]5O)[C@@H](O)[C@H](O)[C@H]4O)cc3O2)cc1O	-0.165
COc1cccc(N(C)C(=S)Oc2ccc3c(c2)CCCC3)n1	-0.761

###

protocol-summary: ovarian cancer cell viability with rucaparib, profiling panel, oncology-focused library, rucaparib conditional (AID 1508598)
settings: patient-derived ovarian cancer cells, CellTiter-Glo viability, 144 h; at 0.0781 µM; OCI-C5x cells; without rucaparib; stronger effect = lower value
Listed below: viability values for each entry.
endpoint-label: viability (%)

> print(dat)
                                    compound  assay.value
 1  O=C(NOCC1CC1)c1ccc(F)c(F)c1Nc1ccc(I)cc1Cl          111
 2               O=C(CCCCCCC(=O)Nc1ccccc1)NO          108
 3  CC/C(=C(\c1ccccc1)c1ccc(OCCN(C)C)cc1)c1ccccc1         92.3
 4  CCN(CC)CCNC(=O)c1c(C)[nH]c(/C=C2\C(=O)Nc3ccc(F)cc32)c1C          111
 5  CC(C)n1c(/C=C/[C@@H](O)C[C@@H](O)CC(=O)O)c(-c2ccc(F)cc2)c2ccccc21         54.7
 6  COc1c(C)c2c(c(O)c1C/C=C(\C)CCC(=O)O)C(=O)OC2          162
 7    Clc1ccc(Nc2nnc(Cc3ccncc3)c3ccccc23)cc1         98.5
 8  CN1CC[C@H](c2c(O)cc(O)c3c(=O)cc(-c4ccccc4Cl)oc23)[C@H](O)C1         22.9
 9  Nc1nc(Cl)nc2c1ncn2[C@@H]1O[C@H](CO)[C@@H](O)[C@@H]1F         78.6
10  FC(F)c1nc2ccccc2n1-c1nc(N2CCOCC2)nc(N2CCOCC2)n1          117
11               CN(C)c1nc(N(C)C)nc(N(C)C)n1          101
12  C#Cc1cccc(Nc2ncnc3cc(OCCOC)c(OCCOC)cc23)c1          106
13  Nc1cccc2c1CN(C1CCC(=O)NC1=O)C2=O (stereo not given)          132
14  COc1cc(Nc2c(C#N)cnc3cc(OCCCN4CCN(C)CC4)c(OC)cc23)c(Cl)cc1Cl          111
15  Cc1nc(Nc2ncc(C(=O)Nc3c(C)cccc3Cl)s2)cc(N2CCN(CCO)CC2)n1         72.4
